ASSAY METHOD TEXT: Liver microsome stability test
Type: in vitro ADME
CONDITIONS: male, CD-1; mouse liver microsomes, Conc. 1 μM
PARAMETER MEASURED: half-life at 1 μM (h)

1: COc1ccccc1[C@H](Cn1c(=O)n(C(C)(C)C(=O)O)c(=O)c2c(C)c(-c3ncco3)sc21)OC1C[C@H]2COC[C@@H]2C1 [Example 1]
2: COc1ccccc1C(Cn1c(=O)n(C(C)(C)C(=O)O)c(=O)c2c(C)c(-c3ncco3)sc21)OC1CC2COCC2C1 (racemic) [Example A13, reference compound]
Given 1 and given 2 , which shows the smaller recorded half-life at 1 μM? To answer, give the label that identifies your chosen option.
2

----------
ASSAY METHOD TEXT: Tissue distribution (liver/plasma) in mice after intragastric administration, LC-MS/MS
Assay type: in vivo, C57BL/6 mice
CONDITIONS: mouse, oral, 5 ml/kg, liver, 2 h, C57BL/6 male mice, read-out: Average tissue concentrations (liver) 2 h
PARAMETER MEASURED: concentration at 2 h (ng/g)

> print(dat)
                                   molecule    parameter.measured  recorded.value
1  COc1ccccc1C(Cn1c(=O)n(C(C)(C)C(=O)O)c(=O)c2c(C)c(-c3ncco3)sc21)OC1CC2COCC2C1 (racemic) [Example A13, reference compound]  concentration at 2 h           14000
2  COc1ccccc1[C@H](Cn1c(=O)n(C(C)(C)C(=O)O)c(=O)c2c(C)c(-c3ncco3)sc21)OC1C[C@@H]2COC[C@H]2C1 [Example 2]  concentration at 2 h           16900

----------
ASSAY METHOD TEXT: Tissue distribution (liver/plasma) in mice after intragastric administration, LC-MS/MS
Format: in vivo, C57BL/6 mice
CONDITIONS: mouse, oral, 5 ml/kg, plasma, 1 h, C57BL/6 male mice, read-out: Average concentration (plasma) 1 h
PARAMETER MEASURED: concentration at 1 h (ng/g)

> print(dat)
                                   compound    parameter.measured  unit.of.measurement  recorded.value
1  COc1ccccc1[C@H](Cn1c(=O)n(C(C)(C)C(=O)O)c(=O)c2c(C)c(-c3ncco3)sc21)OC1C[C@@H]2COC[C@H]2C1  concentration at 1 h                 ng/g             351
2  COc1ccccc1C(Cn1c(=O)n(C(C)(C)C(=O)O)c(=O)c2c(C)c(-c3ncco3)sc21)OC1CC2COCC2C1 (racemic) [Example A13, reference compound]  concentration at 1 h                 ng/g             249

----------
ASSAY METHOD TEXT: Tissue distribution (liver/plasma) in mice after intragastric administration, LC-MS/MS
Type: in vivo, C57BL/6 mice
CONDITIONS: mouse, oral, 5 ml/kg, liver, 1 h, C57BL/6 male mice, read-out: Average tissue concentrations (liver) 1 h
PARAMETER MEASURED: concentration at 1 h (ng/g)

> print(dat)
                                   compound    parameter.measured  recorded.value
1  COc1ccccc1[C@H](Cn1c(=O)n(C(C)(C)C(=O)O)c(=O)c2c(C)c(-c3ncco3)sc21)OC1C[C@@H]2COC[C@H]2C1 [Example 2]  concentration at 1 h           40600
2  COc1ccccc1C(Cn1c(=O)n(C(C)(C)C(=O)O)c(=O)c2c(C)c(-c3ncco3)sc21)OC1CC2COCC2C1 (racemic) [Example A13, reference compound]  concentration at 1 h           33300

----------
ASSAY METHOD TEXT: Tissue distribution (liver/plasma) in mice after intragastric administration, LC-MS/MS
Assay type: in vivo, C57BL/6 mice
CONDITIONS: mouse, oral, 5 ml/kg, plasma, 0.5 h, C57BL/6 male mice, read-out: Average concentration (plasma) 0.5 h
Experimental: C57BL/6 mice were used as the test animals, the LC-MS/MS method was used to determine the drug concentration in plasma and liver at different times after the mice were administered intragastrically the compounds of Examples 1 to 3 and A13. Pharmacokinetic properties of the compounds of the present invention in mice were studied. The prescriptions of A13, Example 1 and Example 2 were: 5% DMSO+5% Kolliphor HS15+90% Saline The prescription of Example 3 was: 10% DMSO+10% Kolliphor HS15+80% Saline […]
PARAMETER MEASURED: concentration at 0.5 h (ng/g)

I: COc1ccccc1C(Cn1c(=O)n(C(C)(C)C(=O)O)c(=O)c2c(C)c(-c3ncco3)sc21)OC1CC2COCC2C1 (racemic) [Example A13, reference compound]
II: COc1ccccc1[C@H](Cn1c(=O)n(C(C)(C)C(=O)O)c(=O)c2c(C)c(-c3ncco3)sc21)OC1C[C@@H]2COC[C@H]2C1
For the two items I and II , which reports the higher concentration at 0.5 h value? Please identify the chosen entry by its label.
I

----------
ASSAY METHOD TEXT: Tissue distribution (liver/plasma) in mice after intragastric administration, LC-MS/MS
Format: in vivo, C57BL/6 mice
CONDITIONS: mouse, liver/plasma, oral, 5 ml/kg, 1 h, C57BL/6 male mice, read-out: Partition ratios of liver and plasma 1 h
Protocol: C57BL/6 mice were used as the test animals, the LC-MS/MS method was used to determine the drug concentration in plasma and liver at different times after the mice were administered intragastrically the compounds of Examples 1 to 3 and A13. Pharmacokinetic properties of the compounds of the present invention in mice were studied. The prescriptions of A13, Example 1 and Example 2 were: 5% DMSO+5% Kolliphor HS15+90% Saline The prescription of Example 3 was: 10% DMSO+10% Kolliphor HS15+80% Saline […]
PARAMETER MEASURED: Kp at 1 h

> print(dat)
                                   molecule  parameter.measured  recorded.value
1  COc1ccccc1[C@H](Cn1c(=O)n(C(C)(C)C(=O)O)c(=O)c2c(C)c(-c3ncco3)sc21)OC1C[C@@H]2COC[C@H]2C1           Kp at 1 h             120
2  COc1ccccc1C(Cn1c(=O)n(C(C)(C)C(=O)O)c(=O)c2c(C)c(-c3ncco3)sc21)OC1CC2COCC2C1 (racemic) [Example A13, reference compound]           Kp at 1 h             130

----------
SYSTEM NAME: ACC2 (Homo sapiens (Human), UniProt O00763)
Sequence (O00763 whole entry, species assumed): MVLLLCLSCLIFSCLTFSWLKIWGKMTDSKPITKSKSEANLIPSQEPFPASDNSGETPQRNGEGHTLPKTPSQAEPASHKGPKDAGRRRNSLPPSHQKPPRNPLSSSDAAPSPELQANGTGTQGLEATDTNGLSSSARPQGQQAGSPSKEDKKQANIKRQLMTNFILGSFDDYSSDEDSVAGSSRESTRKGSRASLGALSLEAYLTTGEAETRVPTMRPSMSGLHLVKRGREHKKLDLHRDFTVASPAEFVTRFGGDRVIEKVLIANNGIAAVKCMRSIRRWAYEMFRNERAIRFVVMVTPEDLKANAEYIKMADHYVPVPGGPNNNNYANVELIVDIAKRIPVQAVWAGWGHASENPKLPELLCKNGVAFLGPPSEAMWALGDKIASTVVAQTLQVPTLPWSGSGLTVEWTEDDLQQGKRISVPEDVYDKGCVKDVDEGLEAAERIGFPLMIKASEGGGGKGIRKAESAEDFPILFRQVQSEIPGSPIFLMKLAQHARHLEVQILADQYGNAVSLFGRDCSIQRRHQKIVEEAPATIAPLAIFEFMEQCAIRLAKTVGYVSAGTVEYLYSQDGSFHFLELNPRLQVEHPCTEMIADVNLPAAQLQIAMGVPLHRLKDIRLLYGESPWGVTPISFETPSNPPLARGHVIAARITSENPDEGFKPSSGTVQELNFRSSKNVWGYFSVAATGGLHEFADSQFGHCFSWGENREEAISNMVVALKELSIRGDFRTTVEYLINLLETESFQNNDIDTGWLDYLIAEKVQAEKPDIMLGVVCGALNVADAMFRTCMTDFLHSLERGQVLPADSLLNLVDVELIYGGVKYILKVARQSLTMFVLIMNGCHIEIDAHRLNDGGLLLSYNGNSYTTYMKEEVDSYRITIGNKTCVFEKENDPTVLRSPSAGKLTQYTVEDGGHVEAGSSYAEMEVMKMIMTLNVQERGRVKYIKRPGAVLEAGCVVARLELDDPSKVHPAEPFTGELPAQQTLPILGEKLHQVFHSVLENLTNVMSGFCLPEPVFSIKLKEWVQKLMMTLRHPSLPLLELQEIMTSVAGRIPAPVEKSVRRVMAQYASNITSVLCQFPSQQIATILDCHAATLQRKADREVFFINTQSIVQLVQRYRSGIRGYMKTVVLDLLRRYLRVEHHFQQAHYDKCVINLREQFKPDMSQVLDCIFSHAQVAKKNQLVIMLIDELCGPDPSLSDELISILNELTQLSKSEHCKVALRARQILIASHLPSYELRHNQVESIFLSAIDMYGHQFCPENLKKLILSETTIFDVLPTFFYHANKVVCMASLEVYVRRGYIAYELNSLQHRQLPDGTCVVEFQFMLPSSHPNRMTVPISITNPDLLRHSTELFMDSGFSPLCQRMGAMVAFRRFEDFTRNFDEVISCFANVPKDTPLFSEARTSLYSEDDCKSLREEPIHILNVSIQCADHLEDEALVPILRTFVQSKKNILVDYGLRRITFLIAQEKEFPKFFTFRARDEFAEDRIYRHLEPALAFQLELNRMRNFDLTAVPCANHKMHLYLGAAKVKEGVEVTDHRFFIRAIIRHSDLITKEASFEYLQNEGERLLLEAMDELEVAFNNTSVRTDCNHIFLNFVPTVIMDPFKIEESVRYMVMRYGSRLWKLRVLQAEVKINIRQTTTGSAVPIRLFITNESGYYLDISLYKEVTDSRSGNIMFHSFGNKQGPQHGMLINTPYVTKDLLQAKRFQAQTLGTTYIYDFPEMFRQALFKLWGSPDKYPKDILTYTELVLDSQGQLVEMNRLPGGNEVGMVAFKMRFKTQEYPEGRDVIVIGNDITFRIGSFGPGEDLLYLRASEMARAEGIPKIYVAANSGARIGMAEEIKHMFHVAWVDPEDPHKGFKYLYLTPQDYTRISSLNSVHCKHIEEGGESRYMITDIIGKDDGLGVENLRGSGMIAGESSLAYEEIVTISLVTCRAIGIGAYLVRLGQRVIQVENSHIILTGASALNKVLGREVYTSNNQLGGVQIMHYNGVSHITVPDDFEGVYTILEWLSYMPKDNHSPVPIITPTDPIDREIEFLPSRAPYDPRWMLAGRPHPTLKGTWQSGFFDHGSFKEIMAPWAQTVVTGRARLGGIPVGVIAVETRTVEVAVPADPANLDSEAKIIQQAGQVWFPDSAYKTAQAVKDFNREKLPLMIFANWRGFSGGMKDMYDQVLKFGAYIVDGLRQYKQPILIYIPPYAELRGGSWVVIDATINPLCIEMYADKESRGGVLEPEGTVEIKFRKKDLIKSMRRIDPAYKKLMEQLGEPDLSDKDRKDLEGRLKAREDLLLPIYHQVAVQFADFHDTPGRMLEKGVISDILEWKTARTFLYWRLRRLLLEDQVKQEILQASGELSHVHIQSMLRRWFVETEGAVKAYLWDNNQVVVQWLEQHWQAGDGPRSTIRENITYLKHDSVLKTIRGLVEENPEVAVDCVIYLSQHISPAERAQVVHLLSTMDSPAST
PARAMETER MEASURED: pIC50
Would you please state pIC50, meaning minus log10 of the concentration in mol/L, as a bare number?

Provide pIC50, tested on ACC2 (Homo sapiens (Human), UniProt O00763), for COc1ccccc1[C@H](Cn1c(=O)n(C(C)(C)C(=O)O)c(=O)c2c(C)c(-c3ncco3)sc21)OC1C[C@H]2COC[C@@H]2C1 .
8.44

----------
ASSAY METHOD TEXT: Tissue distribution (liver/plasma) in mice after intragastric administration, LC-MS/MS
Type: in vivo, C57BL/6 mice
CONDITIONS: mouse, liver/plasma, oral, 5 ml/kg, 0.5 h, C57BL/6 male mice, read-out: Partition ratios of liver and plasma 0.5 h
PARAMETER MEASURED: Kp at 0.5 h

P: COc1ccccc1[C@H](Cn1c(=O)n(C(C)(C)C(=O)O)c(=O)c2c(C)c(-c3ncco3)sc21)OC1C[C@@H]2COC[C@H]2C1
Q: COc1ccccc1C(Cn1c(=O)n(C(C)(C)C(=O)O)c(=O)c2c(C)c(-c3ncco3)sc21)OC1CC2COCC2C1 (racemic) [Example A13, reference compound]
Compare reported Kp at 0.5 h values for P and Q . Which is lower? Refer to your chosen item by its label in the answer.
Q
(Q: 86, P: 190)
